Experiment: Stability in an aqueous solution (HPLC)
Format: physicochemical
Conditions: pH 7 Britton-Robinson buffer solution, 25° C., 24 hours
In this section, each of the molecules is paired with its reported Remaining percentage (%).
All answers are understood in %, so give the number only.

Prompt: Data request, read-out Remaining percentage (%), for CCC(O)C(C)C1OC1CC(C)(O)/C=C/C=C(\C)C1OC(=O)CC(O)CCC(C)C(OC(=O)NCCN(CC)CC)/C=C/C1C (stereo not shown)
Response: 95.4

Prompt: Looking for the measured Remaining percentage (%) of CCC(O)C(C)C1OC1CC(C)(O)/C=C/C=C(\C)C1OC(=O)CC(O)CCC(C)C(OC(=O)N2CCCN(CC)CC2)/C=C/C1C (stereo not shown) , can you help?
Response: 95.8

Prompt: # input molecule: CCC(O)C(C)C1OC1CC(C)(O)/C=C/C=C(\C)C1OC(=O)CC(O)CCC(C)C(OC(=O)N2CCN(C)CC2)/C=C/C1C (stereo not shown) ; wanted: its Remaining percentage (%)
Response: 95.0

Prompt: Query: Remaining percentage (%); subject: CCC(O)C(C)C1OC1CC(C)(O)/C=C/C=C(\C)C1OC(=O)CC(O)CCC(C)C(OC(=O)N(C)CCN(CC)CC)/C=C/C1C (stereo not shown)
Response: 95.6

###

The molecules listed here are annotated with their Remaining percentage (%).
Experiment: Stability in an aqueous solution (HPLC)
Type: physicochemical
Conditions: pH 7 Britton-Robinson buffer solution, 25° C., 24 hours
Procedure: The compound of the formula (I) was dissolved in DMSO at a concentration of 10 to 20 mM, and the solution was diluted with a pH 7 Britton-Robinson buffer solution to about 500-fold. […] The sample solution before and after the incubation was analyzed using high-performance liquid chromatography to obtain a chromatogram. The percentage of the compound remaining in the sample solution after the incubation was determined from the peak area of the chromatogram.

Recorded results for 4 molecules are shown here.
Prompt: Record request: Remaining percentage (%) value, item CCC(O)C(C)C1OC1CC(C)(O)/C=C/C=C(\C)C1OC(=O)CC(O)CCC(C)C(OC(=O)N2CCCN(C)CC2)/C=C/C1C (stereo not drawn)
Response: 95.5%

Prompt: If you can, please state the reported Remaining percentage (%) value of CCC(O)C(C)C1OC1CC(C)(O)/C=C/C=C(\C)C1OC(=O)CC(O)CCC(C)C(OC(=O)N2C[C@@H]3C[C@H]2CN3C)/C=C/C1C (stereo partly drawn) .
Response: 95.7%

Prompt: Dear colleague, I am looking for the recorded Remaining percentage (%) of the following molecule: CCC(O)C(C)C1OC1CC(C)(O)/C=C/C=C(\C)C1OC(=O)CC(O)CCC(C)C(OC(=O)N2CCN(C(C)C)CC2)/C=C/C1C (stereo not drawn)
Response: 95.4%

Prompt: Give the measured Remaining percentage (%) of CCC(OC)C(C)C1OC1C(O)C(C)/C=C/C=C(\C)C1OC(=O)CC(O)CCC(C)(O)C(OC(C)=O)/C=C/C1C (stereo not drawn) .
Response: 83.0%

Others:
Prompt: Reported Remaining percentage (%), molecule CCC(O)C(C)C1OC1CC(C)(O)/C=C/C=C(\C)C1OC(=O)CC(O)CCC(C)C(OC(=O)N2CCCN(C(C)C)CC2)/C=C/C1C (stereo not drawn) : ____
Response: 95.9%

Prompt: I'd like to know its Remaining percentage (%). The molecule in question is CCC(O)C(C)C1OC1CC(C)(O)/C=C/C=C(\C)C1OC(=O)CC(O)CCC(C)C(OC(=O)N2CCC(N3CCCCC3)CC2)/C=C/C1C (stereo not drawn)
Response: 94.8%
